This collection of values is drawn from ChEMBL document CHEMBL4715736.

Test system: MOLT-4
TEST_DETAILS: Growth inhibition of human MOLT-4 cells assessed as cell growth at 100 uM incubated for 48 hrs by sulforhodamine B assay relative to control
Format: functional
EXPERIMENTAL_CONDITIONS: read-out: Activity
Kindly state growth at 100 µM for each of the entries shown.
Note: state the figure and append the unit.

Noted for COc1cccc(NC(=O)c2sc3nc4c(cc3c2N)CN(Cc2ccccc2)CC4)c1 : its growth at 100 µM reads 13%

Reported growth at 100 µM for CN1CCc2nc3sc(C(N)=O)c(N)c3c(-c3cccs3)c2C1 was -4%

Lookup result for Cc1ccc(NC(=O)c2sc3nc4c(cc3c2N)C(=O)CCC4)cc1C ; measured growth at 100 µM: -6%

The molecule Nc1c(C(=O)Nc2ccccc2)sc2nc3c(cc12)CN(Cc1ccccc1)CC3 showed growth at 100 µM equal to 18%

Per the record, Cc1cc(C)c(NC(=O)c2sc3nc4c(cc3c2N)CN(Cc2ccccc2)CC4)c(C)c1 has growth at 100 µM of 10%

growth at 100 µM reading for CCc1ccccc1NC(=O)c1sc2nc3c(cc2c1N)C(=O)CCC3 : 31%

Reported growth at 100 µM of CCc1cccc(C)c1NC(=O)c1sc2nc3c(cc2c1N)C(=O)CCC3 : -9%

Lookup result for Cc1cccc(NC(=O)c2sc3nc4c(cc3c2N)C(=O)CCC4)c1 ; measured growth at 100 µM: 6%

====

Test system: HOP-92
TEST_DETAILS: Growth inhibition of human HOP-92 cells assessed as cell growth at 1 uM incubated for 48 hrs by sulforhodamine B assay relative to control
Assay type: functional
EXPERIMENTAL_CONDITIONS: read-out: Activity
QUANTITY_NAME: growth at 1 µM (%)
Please give a number only; it is taken to be in %.

The molecule CCc1ccccc1NC(=O)c1sc2nc3c(cc2c1N)C(=O)CCC3 showed growth at 1 µM equal to 35

Per the records, this molecule ( COc1cccc(NC(=O)c2sc3nc4c(cc3c2N)CN(Cc2ccccc2)CC4)c1 ) has growth at 1 µM equal to 64

Record summary for Cc1cccc(NC(=O)c2sc3nc4c(cc3c2N)C(=O)CCC4)c1 : reported growth at 1 µM = 50

====

System: DU-145
TEST_DETAILS: Growth inhibition of human DU-145 cells assessed as cell growth at 1 uM incubated for 48 hrs by sulforhodamine B assay relative to control
Format: functional
EXPERIMENTAL_CONDITIONS: read-out: Activity
Could you please report measured growth at 1 µM for the items listed next?
Lab book: enter the figure in %, no units written.

Given item Nc1c(C(=O)Nc2ccccc2)sc2nc3c(cc12)CN(Cc1ccccc1)CC3 , the value recorded as its growth at 1 µM is 74

Just so you know, measured growth at 1 µM for Cc1cccc(NC(=O)c2sc3nc4c(cc3c2N)C(=O)CCC4)c1 came out at 3

Form field growth at 1 µM, entry COc1cccc(NC(=O)c2sc3nc4c(cc3c2N)CN(Cc2ccccc2)CC4)c1 : 95

Reported growth at 1 µM of Cc1ccc(NC(=O)c2sc3nc4c(cc3c2N)C(=O)CCC4)cc1C : 35

Sample Cc1cc(C)c(NC(=O)c2sc3nc4c(cc3c2N)CN(Cc2ccccc2)CC4)c(C)c1 ; growth at 1 µM observed: 95
